Each record here notes measured self-cleavage.
B1: Twister Ribozyme (parent)
chain: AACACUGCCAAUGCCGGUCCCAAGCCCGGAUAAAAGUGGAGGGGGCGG

variants of: B1; experiment: self-cleavage, relative activity (ratio to wild type); higher = more cleavage; co-transcriptional

>  <variant.spec>
G28A G48C

>  <self-cleavage>
0.94

$$$$
>  <variant.spec>
C15G C26A

>  <self-cleavage>
0.0956

$$$$
>  <variant.spec>
A22U G38C

>  <self-cleavage>
0.779

$$$$
>  <variant.spec>
U12C U31C

>  <self-cleavage>
0.938

$$$$
>  <variant.spec>
C5G C20U

>  <self-cleavage>
0.65

$$$$
>  <variant.spec>
A35G G38U

>  <self-cleavage>
0.667

$$$$
>  <variant.spec>
G17C G38U

>  <self-cleavage>
0.073

$$$$
>  <variant.spec>
U6C G13U

>  <self-cleavage>
0.0523

$$$$
>  <variant.spec>
G17C U18C

>  <self-cleavage>
0.1

$$$$
>  <variant.spec>
G41C G42A

>  <self-cleavage>
0.125

$$$$
>  <variant.spec>
G42U G45A

>  <self-cleavage>
0.294

$$$$
>  <variant.spec>
A4U C19A

>  <self-cleavage>
0.0659

$$$$
>  <variant.spec>
G47C

>  <self-cleavage>
0.706

$$$$
>  <variant.spec>
C15A G29A

>  <self-cleavage>
0.793

$$$$
>  <variant.spec>
C26G G36C

>  <self-cleavage>
0.0652

$$$$
>  <variant.spec>
C15A G16U

>  <self-cleavage>
0.34

$$$$
>  <variant.spec>
A11U G47C

>  <self-cleavage>
0.624

$$$$
